# system_name: Histone deacetylase 2 (Homo sapiens, UniProt Q92769)
# Sequence (Q92769 whole entry, the tested form may be a part): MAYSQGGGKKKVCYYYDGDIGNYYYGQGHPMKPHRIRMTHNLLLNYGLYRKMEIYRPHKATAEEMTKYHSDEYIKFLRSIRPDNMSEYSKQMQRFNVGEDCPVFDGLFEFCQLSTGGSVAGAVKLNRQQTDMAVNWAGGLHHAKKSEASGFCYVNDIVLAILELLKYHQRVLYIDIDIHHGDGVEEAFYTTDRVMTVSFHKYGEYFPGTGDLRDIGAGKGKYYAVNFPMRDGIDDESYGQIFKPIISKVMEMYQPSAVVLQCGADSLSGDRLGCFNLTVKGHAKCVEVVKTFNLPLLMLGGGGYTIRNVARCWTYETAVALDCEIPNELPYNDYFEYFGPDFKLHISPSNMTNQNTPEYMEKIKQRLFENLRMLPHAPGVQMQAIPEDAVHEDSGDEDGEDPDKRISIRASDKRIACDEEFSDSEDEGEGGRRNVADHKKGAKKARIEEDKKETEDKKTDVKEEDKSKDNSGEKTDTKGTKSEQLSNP
# test_name: Inhibition of human HDAC2 using p53 (379 to 382 residues) derived fluorogenic peptide RHKKAc
// returns N unless IC50 is strictly below 3 µM, in which case Y

[[record]]
molecule = "Nc1cc(F)ccc1NC(=O)c1ccc(NC(=O)CCc2ccccc2)cc1"
answer_label = "Y"


## Task For this molecule, is IC50 lower than 3 µM? CC(C)[C@@H](C(=O)Nc1ccc(C(=O)Nc2ccc(F)cc2N)cn1)c1ccccc1
## Result N

## Task For this molecule, is IC50 lower than 3 µM? CC(C)(C(=O)Nc1ccc(C(=O)Nc2ccc(F)cc2N)cc1)c1ccccc1
## Result N

## Task For this molecule, is IC50 lower than 3 µM? Nc1cc(F)ccc1NC(=O)c1ccc(NC(=O)C2CC2c2ccccc2)cn1 (centres undefined)
## Result N

###

# system_name: Histone deacetylase 8 (Homo sapiens)
# Sequence (whole entry): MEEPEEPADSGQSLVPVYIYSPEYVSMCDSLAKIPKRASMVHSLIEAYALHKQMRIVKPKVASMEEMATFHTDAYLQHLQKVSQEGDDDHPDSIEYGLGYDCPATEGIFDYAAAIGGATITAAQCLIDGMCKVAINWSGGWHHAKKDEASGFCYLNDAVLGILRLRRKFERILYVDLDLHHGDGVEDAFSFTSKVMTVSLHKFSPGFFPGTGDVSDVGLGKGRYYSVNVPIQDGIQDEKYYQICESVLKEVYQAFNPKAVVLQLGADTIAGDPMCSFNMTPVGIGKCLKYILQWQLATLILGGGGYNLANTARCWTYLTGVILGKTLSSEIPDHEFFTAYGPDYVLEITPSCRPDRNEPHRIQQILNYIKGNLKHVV
# test_name: Inhibition of human HDAC8 at 1 uM using p53 (379 to 382 residues) derived fluorogenic peptide RHKAcKAc
We begin with a simple list: items and their reported inhibition.
Give the value in % but do not write % after it.

[[record]]
compound = "CC(C)[C@@H](C(=O)Nc1ccc(C(=O)Nc2ccccc2N)cc1)c1ccccc1"
value_observed = 38

[[record]]
compound = "CC(C)[C@H](C(=O)Nc1ccc(C(=O)Nc2ccccc2N)cc1)c1ccccc1"
value_observed = 7

[[record]]
compound = "CC(C)[C@@H](C(=O)Nc1ccc(C(=O)Nc2ccc(C(F)(F)F)cc2N)cc1)c1ccccc1"
value_observed = 0

[[record]]
compound = "CC(C)(C(=O)Nc1ccc(C(=O)Nc2ccccc2N)cc1)c1ccccc1"
value_observed = 0

[[record]]
compound = "CC(C)[C@@H](C(=O)Nc1ccc(C(=O)Nc2ccc(F)cc2N)cc1)c1ccccc1"
value_observed = 6


Data point: CC(C)(C(=O)Nc1ccc(C(=O)Nc2ccc(F)cc2N)cc1)c1ccccc1 ; inhibition = 0

Data point: CC(C)[C@H](C(=O)Nc1ccc(C(=O)NO)cc1)c1ccccc1 ; inhibition = 87

Data point: Nc1cc(F)ccc1NC(=O)c1ccc(NC(=O)C2CC2c2ccccc2)cc1 (stereo not given) ; inhibition = 14

Data point: Nc1ccccc1NC(=O)c1ccc(NC(=O)Cc2ccc(C(F)(F)F)cc2)cc1 ; inhibition = 0

Data point: Nc1cc(F)ccc1NC(=O)c1ccc(NC(=O)Cc2ccc(C(F)(F)F)cc2)cc1 ; inhibition = 5

###

We begin with a simple list: items and their reported inhibition.
# system_name: Histone deacetylase 2 (Homo sapiens, UniProt Q92769)
# test_name: Inhibition of human HDAC2 at 1 uM using p53 (379 to 382 residues) derived fluorogenic peptide RHKKAc

// below: answered compounds
[[record]]
compound = "CC(C)(C(=O)Nc1ccc(C(=O)Nc2ccc(F)cc2N)cc1)c1ccccc1"
system_name = "Histone deacetylase 2 (Homo sapiens, UniProt Q92769)"
value_observed = "5%"

[[record]]
compound = "Nc1cc(F)ccc1NC(=O)c1ccc(NC(=O)C2CC2c2ccccc2)cc1 (stereo unspecified)"
system_name = "Histone deacetylase 2 (Homo sapiens, UniProt Q92769)"
value_observed = "9%"


Assay Histone deacetylase 2 (Homo sapiens, UniProt Q92769), sample CC(C)[C@H](C(=O)Nc1ccc(C(=O)NO)cc1)c1ccccc1 , inhibition read: 72%

Assay Histone deacetylase 2 (Homo sapiens, UniProt Q92769), sample CC(C)[C@@H](C(=O)Nc1ccc(C(=O)Nc2ccccc2N)cc1)c1ccccc1 , inhibition read: 57%

Assay Histone deacetylase 2 (Homo sapiens, UniProt Q92769), sample CC(C)(C(=O)Nc1ccc(C(=O)Nc2ccccc2N)cc1)c1ccccc1 , inhibition read: 34%

###

We begin with a simple list: items and their reported inhibition.
# system_name: Protein deacetylase HDAC6 (Homo sapiens)
# test_name: Inhibition of human HDAC6 at 1 uM using p53 (379 to 382 residues) derived fluorogenic peptide RHKKAc
Write the quantity with the unit trailing the number.

[[record]]
molecule = "Nc1cc(F)ccc1NC(=O)c1ccc(NC(=O)C2CC2c2ccccc2)cc1 (stereo not given)"
measure_name = "inhibition"
value_observed = "0%"

[[record]]
molecule = "CC(C)[C@@H](C(=O)Nc1ccc(C(=O)Nc2ccccc2N)cc1)c1ccccc1"
measure_name = "inhibition"
value_observed = "16%"

[[record]]
molecule = "CC(C)[C@@H](C(=O)Nc1ccc(C(=O)Nc2ccc(F)cc2N)cc1)c1ccccc1"
measure_name = "inhibition"
value_observed = "0%"

[[record]]
molecule = "CC(C)[C@H](C(=O)Nc1ccc(C(=O)Nc2ccccc2N)cc1)c1ccccc1"
measure_name = "inhibition"
value_observed = "20%"

[[record]]
molecule = "CC(C)(C(=O)Nc1ccc(C(=O)Nc2ccc(F)cc2N)cc1)c1ccccc1"
measure_name = "inhibition"
value_observed = "4%"

[[record]]
molecule = "CC(C)[C@@H](C(=O)Nc1ccc(C(=O)Nc2ccc(C(F)(F)F)cc2N)cc1)c1ccccc1"
measure_name = "inhibition"
value_observed = "0%"

[[record]]
molecule = "CC(C)[C@H](C(=O)Nc1ccc(C(=O)NO)cc1)c1ccccc1"
measure_name = "inhibition"
value_observed = "100%"

[[record]]
molecule = "Nc1ccccc1NC(=O)c1ccc(NC(=O)Cc2ccc(C(F)(F)F)cc2)cc1"
measure_name = "inhibition"
value_observed = "0%"

[[record]]
molecule = "Nc1cc(F)ccc1NC(=O)c1ccc(NC(=O)Cc2ccc(C(F)(F)F)cc2)cc1"
measure_name = "inhibition"
value_observed = "0%"


Data point: CC(C)(C(=O)Nc1ccc(C(=O)Nc2ccccc2N)cc1)c1ccccc1 ; inhibition = 4%

###

We begin with a simple list: items and their reported inhibition.
# system_name: Histone deacetylase 3/Nuclear receptor corepressor 2 (HDAC3/NCoR2) (Homo sapiens) (UniProt O15379+Q9Y618)
# test_name: Inhibition of human HDAC3/NCOR2 at 1 uM using p53 (379 to 382 residues) derived fluorogenic peptide RHKKAc
# Type: protein-complex assay

// below: answered molecules
[[record]]
molecule = "CC(C)[C@@H](C(=O)Nc1ccc(C(=O)Nc2ccccc2N)cc1)c1ccccc1"
value_observed = "76%"

[[record]]
molecule = "CC(C)(C(=O)Nc1ccc(C(=O)Nc2ccccc2N)cc1)c1ccccc1"
value_observed = "36%"

[[record]]
molecule = "Nc1cc(F)ccc1NC(=O)c1ccc(NC(=O)C2CC2c2ccccc2)cc1 (stereo unspecified)"
value_observed = "82%"

[[record]]
molecule = "CC(C)[C@H](C(=O)Nc1ccc(C(=O)NO)cc1)c1ccccc1"
value_observed = "93%"

[[record]]
molecule = "Nc1cc(F)ccc1NC(=O)c1ccc(NC(=O)Cc2ccc(C(F)(F)F)cc2)cc1"
value_observed = "36%"


Data point: CC(C)[C@@H](C(=O)Nc1ccc(C(=O)Nc2ccc(C(F)(F)F)cc2N)cc1)c1ccccc1 ; inhibition = 0%

Data point: CC(C)[C@H](C(=O)Nc1ccc(C(=O)Nc2ccccc2N)cc1)c1ccccc1 ; inhibition = 30%

Data point: CC(C)(C(=O)Nc1ccc(C(=O)Nc2ccc(F)cc2N)cc1)c1ccccc1 ; inhibition = 87%

Data point: CC(C)[C@@H](C(=O)Nc1ccc(C(=O)Nc2ccc(F)cc2N)cc1)c1ccccc1 ; inhibition = 78%

Data point: Nc1ccccc1NC(=O)c1ccc(NC(=O)Cc2ccc(C(F)(F)F)cc2)cc1 ; inhibition = 33%

###

We begin with a simple list: items and their reported pIC50.
# system_name: Histone deacetylase 2 (Homo sapiens)
For clarity, pIC50 is expressed as the negative log10 of concentration in mol/L.

// below: answered molecules
[[record]]
entry_smiles = "C[C@H](C(=O)Nc1ccc(C(=O)Nc2ccc(F)cc2N)cc1)c1ccccc1"
system_name = "Histone deacetylase 2 (Homo sapiens)"
value_observed = 5.47

[[record]]
entry_smiles = "Nc1cc(F)ccc1NC(=O)c1ccc(NC(=O)Cc2ccccc2)cn1"
system_name = "Histone deacetylase 2 (Homo sapiens)"
value_observed = 5.70

[[record]]
entry_smiles = "CC[C@@H](C(=O)Nc1ccc(C(=O)Nc2ccc(F)cc2N)nc1)c1ccccc1"
system_name = "Histone deacetylase 2 (Homo sapiens)"
value_observed = 6.20


Shift focus to the following entry.
Assay Histone deacetylase 2 (Homo sapiens), sample CC(C)[C@H](C(=O)Nc1ccc(C(=O)Nc2ccc(F)cc2N)nc1)c1ccccc1 , pIC50 read: 5.60

Values were extracted from ChEMBL document CHEMBL4130443.
